- target under test: human mGluR5A (Homo sapiens, UniProt P41594)
- Sequence (P41594 21-1180 isoform P41594-2): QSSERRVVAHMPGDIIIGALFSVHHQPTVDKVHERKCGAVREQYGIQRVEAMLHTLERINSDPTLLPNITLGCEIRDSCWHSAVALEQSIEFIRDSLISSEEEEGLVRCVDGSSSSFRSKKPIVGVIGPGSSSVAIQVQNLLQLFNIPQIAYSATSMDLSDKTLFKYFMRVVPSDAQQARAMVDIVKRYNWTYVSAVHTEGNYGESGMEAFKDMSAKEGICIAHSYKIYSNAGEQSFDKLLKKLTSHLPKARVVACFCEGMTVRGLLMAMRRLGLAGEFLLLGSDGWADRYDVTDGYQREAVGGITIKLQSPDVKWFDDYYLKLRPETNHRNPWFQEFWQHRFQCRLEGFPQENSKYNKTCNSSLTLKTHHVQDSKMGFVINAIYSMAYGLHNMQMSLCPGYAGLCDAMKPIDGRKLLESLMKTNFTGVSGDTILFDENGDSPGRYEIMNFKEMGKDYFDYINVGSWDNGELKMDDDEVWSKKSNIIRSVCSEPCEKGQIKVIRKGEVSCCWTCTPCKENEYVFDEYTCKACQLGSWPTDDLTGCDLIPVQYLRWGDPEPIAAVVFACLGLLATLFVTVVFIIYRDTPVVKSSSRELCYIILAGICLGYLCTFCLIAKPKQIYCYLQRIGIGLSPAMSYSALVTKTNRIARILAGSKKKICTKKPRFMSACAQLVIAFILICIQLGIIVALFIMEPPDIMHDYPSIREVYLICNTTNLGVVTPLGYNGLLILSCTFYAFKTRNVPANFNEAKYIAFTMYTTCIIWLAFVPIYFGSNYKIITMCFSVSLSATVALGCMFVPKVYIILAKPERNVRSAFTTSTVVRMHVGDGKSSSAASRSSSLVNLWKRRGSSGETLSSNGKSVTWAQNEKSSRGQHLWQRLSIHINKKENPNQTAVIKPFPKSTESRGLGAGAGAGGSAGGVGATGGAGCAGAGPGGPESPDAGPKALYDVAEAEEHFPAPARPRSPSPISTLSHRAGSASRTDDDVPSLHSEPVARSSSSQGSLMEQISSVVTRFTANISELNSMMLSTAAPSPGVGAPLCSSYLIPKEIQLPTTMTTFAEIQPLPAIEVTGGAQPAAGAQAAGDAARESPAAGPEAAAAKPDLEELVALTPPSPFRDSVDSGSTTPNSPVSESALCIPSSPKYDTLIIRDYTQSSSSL
- test method notes: mGluR5 FLIPR Assay
- experimental context: positive modulator activity; HEK293 (ZF) cells with human mGluR5A and rat GLAST; Ca++ response to ~EC10 glutamate
Overview of recorded EC50 for various compounds

Consider the following illustrative entries.
O=C1N[C@H](c2cc(C#Cc3ccccn3)cnc2F)[C@@H](c2ccc(F)cc2)O1	< 100 nM
O=C1N[C@H](c2cccc(C#Cc3ccccc3)c2)[C@@H](c2nc(-c3cccnc3)no2)O1	> 1000 nM
COc1cccc([C@@H]2OC(=O)N[C@H]2c2cccc(C#Cc3ccccc3C(F)(F)F)c2)c1	> 30000 nM
COc1cccc([C@H]2OC(=O)N[C@@H]2c2cccc(C#Cc3ccccc3C#N)c2)c1	> 1000 nM
COc1cccc([C@H]2OC(=O)N[C@@H]2c2cccc(C#Cc3cscn3)c2)c1	< 100 nM
O=C1N[C@@H](c2cccc(C#Cc3ccccc3)c2)[C@H](c2ccccn2)O1	> 1000 nM
O=C1N[C@@H](c2nc(C#Cc3ccccc3)ccc2F)[C@H](c2ccccc2)O1 (single isomer, unassigned)	> 3000 nM
C[C@]1(c2ccc(F)cc2)OC(=O)N[C@H]1c1cncc(C#Cc2ccccc2)c1	100 to 1000 nM

Any idea what its EC50 is? The compound is "C[C@@]1(c2cccc(F)c2)OC(=O)N[C@H]1c1cncc(C#Cc2ccccc2)c1"
> 1000 nM

Any idea what its EC50 is? The compound is "O=C1N[C@@H](c2cccc(C#Cc3ccccc3)c2)[C@H](c2ccc(F)cc2)O1"
> 1000 nM

Any idea what its EC50 is? The compound is "COc1cccc([C@H]2OC(=O)N[C@@H]2c2cccc(C#Cc3cccnc3C#N)c2)c1"
> 1000 nM

Any idea what its EC50 is? The compound is "N#Cc1ccc([C@H]2OC(=O)N[C@@H]2c2cncc(C#Cc3ccccc3)c2)cc1"
< 100 nM

Any idea what its EC50 is? The compound is "O=C1N[C@H](c2cc(C#Cc3ccccc3)ncc2F)[C@@H](c2ccccc2F)O1"
< 100 nM

Any idea what its EC50 is? The compound is "COc1cccc([C@H]2OC(=O)N[C@@H]2c2cccc(C#Cc3cccc(C)c3)c2)c1"
> 1000 nM

Any idea what its EC50 is? The compound is O=C1N[C@H](c2cncc(C#Cc3ccccc3)c2)[C@@H](c2ccc(F)cc2)O1 (single isomer, unassigned)
< 100 nM

Any idea what its EC50 is? The compound is O=C1N[C@@H](c2cncc(C#Cc3ccccc3)c2)[C@H](c2cccs2)O1 (single isomer, unassigned)
> 1000 nM

Any idea what its EC50 is? The compound is O=C1N[C@@H](c2cccc(C#Cc3ccccc3)c2)[C@H](c2cccnc2)O1 [Example 118]
> 1000 nM

Any idea what its EC50 is? The compound is "O=C1N[C@H](c2cc(C#Cc3cncc(C4CC4)c3)cnc2F)[C@@H](c2ccc(F)cc2)O1"
> 1000 nM
